System: Rattus norvegicus
run description: Tested in vivo for ability to inhibit sorbitol formation in the nerve of a streptozotocinized rat model after oral administration at the dose of 1.0 mg/Kg
Format: functional
value type: inhibition in vivo at 1 mg/kg (%)
Answer with a number only, understood to be in %.

Completed entries (count: 3):
molecule	units symbol	value reported
C[C@@H]1C[C@]2(NC(=O)NC2=O)c2cc(Br)cnc2O1 (racemic)	%	72.7
C[C@@H]1C[C@]2(NC(=O)NC2=O)c2cccnc2O1 (racemic)	%	18.2
C[C@@H]1C[C@]2(NC(=O)NC2=O)c2cc(Cl)cnc2O1 (racemic; 16)	%	87.5

input: Which inhibition in vivo at 1 mg/kg value is on record for O=C1NC(=O)[C@@]2(CCOc3ncc(Cl)cc32)N1 (racemic) ?
output: 37

input: Which inhibition in vivo at 1 mg/kg value is on record for `C[C@H]1C[C@@]2(NC(=O)NC2=O)c2cc(Cl)cnc2O1` ?
output: -9.5

Values were extracted from ChEMBL document CHEMBL1125164.
